# assayed.target: T1, N-Terminal Peptide aa1-17 (Transferrin- or BSA-Coupled) (human, also: coupled to carrier protein (BSA or transferrin), site not given here)
# T1 peptide: MEDFNMESDSFEDFWKGC
# protocol.text: initial screening, Fab; carrier of the peptide not stated
Where no end group is shown, it is not given here.
measurement.name: signal over background

Recorded signal over background, per entry:
CX2-Mab #2 (Fab format) (Fab, V domains shown) VH: QVQLVQSGAEVKKPGASVKVSCKASGYTFSRYAMHWVRQAPGQGLEWMGVINPYNGNTRYAQKFQGRVTMTRDTSISTAYMELSRLRSEDTAVYYCARGSHIQAGAFDYWGQGTLVTVSS VL: DIQMTQSPSSLSASVGDRVTITCRASQGINNRLNWYQQKPGKAPKLLIYDGSSLQSGVPSRFSGSGSGTDFTLTISSLQPEDFATYYCQQYIHFPVTFGQGTKVEIKR :: ≥ 5 fold
CX2-Mab #3 (Fab format) (Fab, V domains shown) VH: EVQLLESGGGLVQPGGSLRLSCAASGFTFSSYWMSWVRQAPGKGLEWVSVISYSGSETFYADSVKGRFTISRDNSKNTLYLQMNSLRAEDTAVYYCARGRVGYAFDYWGQGTLVTVSS VL: DIVLTQPPSVSGAPGQRVTISCSGSSSNIGVNYVNWYQQLPGTAPKLLIYSNNQRPSGVPDRFSGSKSGTSASLAITGLQAEDEADYYCQSRASGFYSVVFGGGTKLTVLG :: ≥ 5 fold

// signal over background lookup, key: CX2-Mab #5 (Fab format) (Fab, V domains shown) VH: EVQLLESGGGLVQPGGSLRLSCAASGFTFNSNAMSWVRQAPGKGLEWVSFISYSGSHTYYADSVKGRFTISRDNSKNTLYLQMNSLRAEDTAVYYCARYTRFLSRPAFDPWGQGTLVTVSS VL: DIVLTQPPSVSGAPGQRVTISCTGSSSNIGAGYDVHWYQQLPGTAPKLLIYYNSKRPSGVPDRFSGSKSGTSASLAITGLQAEDEADYYCGAYDRKMNSYVFGGGTKLTVLG ≥ 5 fold

Where these numbers come from: patent US20160060347A1
